Attribution: patent US20260116910A1

target: MRGPRX4 (Homo sapiens, UniProt Q96LA9); experiment: MRGPRX4 activation, Fluo-8 Ca2+ FLIPR assay in HEK293T cells stably expressing MRGPRX4; format: cell-based; conditions: Conc. (Log[M]) −7
Sequence (Q96LA9 whole entry): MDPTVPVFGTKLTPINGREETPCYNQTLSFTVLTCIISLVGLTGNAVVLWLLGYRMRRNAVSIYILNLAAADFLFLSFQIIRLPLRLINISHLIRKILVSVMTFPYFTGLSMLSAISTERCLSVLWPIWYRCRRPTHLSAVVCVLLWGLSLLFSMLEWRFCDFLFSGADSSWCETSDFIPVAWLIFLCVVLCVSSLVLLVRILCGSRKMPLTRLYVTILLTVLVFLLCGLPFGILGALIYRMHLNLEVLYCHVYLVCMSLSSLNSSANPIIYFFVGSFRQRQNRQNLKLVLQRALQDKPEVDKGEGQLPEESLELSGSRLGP
Known MRGPRX4 activation, fluorescence change (dF/F0), Average of a selection of compounds
TEST READOUT: MRGPRX4 activation, fluorescence change (dF/F0), Average

>  <COMPOUND>
CC(C[C@@H](C)[C@H]1CC[C@H]2[C@@H]3CC[C@@H]4CCCC[C@]4(C)[C@H]3CC[C@]12C)C(=O)O (stereo partly drawn)

>  <VALUE MEASURED>
−0.110

$$$$
>  <COMPOUND>
CC[C@H]1[C@@H](O)[C@@H]2[C@H](CC[C@]3(C)[C@@H]([C@H](C)CCNC(=O)NS(=O)(=O)c4cccc(Cl)c4)CC[C@@H]23)[C@@]2(C)CCCC[C@@H]12

>  <VALUE MEASURED>
0.017

$$$$
>  <COMPOUND>
C[C@H](CCCCC(=O)O)[C@H]1CC[C@H]2[C@@H]3CC[C@@H]4C[C@H](O)CC[C@]4(C)[C@H]3CC[C@]12C

>  <VALUE MEASURED>
−0.014

$$$$
>  <COMPOUND>
C[C@H](CCC(=O)O)[C@H]1CC[C@H]2[C@@H]3CC[C@@H]4CC(=O)CC[C@]4(C)[C@H]3CC[C@]12C

>  <VALUE MEASURED>
0.013

$$$$
>  <COMPOUND>
C[C@]12CC[C@@H](O)C[C@H]1CC[C@@H]1[C@@H]2C[C@H](O)[C@]2(C)[C@@H](CCCCCC(=O)O)CC[C@@H]12

>  <VALUE MEASURED>
−0.027

$$$$
>  <COMPOUND>
CC[C@H]1[C@@H](O)[C@@H]2[C@H](CC[C@]3(C)[C@@H]([C@H](C)CCNC(=O)NS(=O)(=O)c4ccc5c(c4)CCN5C(C)=O)CC[C@@H]23)[C@@]2(C)CCCC[C@@H]12

>  <VALUE MEASURED>
0.017

$$$$
